experimentalSystem: human ether-à-go-go-related gene (hERG) potassium channel (human, UniProt Q12809);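 further: peak tail current of the secondary pulse compared with the same well before compound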
Sequence (Q12809 whole entry, looked up): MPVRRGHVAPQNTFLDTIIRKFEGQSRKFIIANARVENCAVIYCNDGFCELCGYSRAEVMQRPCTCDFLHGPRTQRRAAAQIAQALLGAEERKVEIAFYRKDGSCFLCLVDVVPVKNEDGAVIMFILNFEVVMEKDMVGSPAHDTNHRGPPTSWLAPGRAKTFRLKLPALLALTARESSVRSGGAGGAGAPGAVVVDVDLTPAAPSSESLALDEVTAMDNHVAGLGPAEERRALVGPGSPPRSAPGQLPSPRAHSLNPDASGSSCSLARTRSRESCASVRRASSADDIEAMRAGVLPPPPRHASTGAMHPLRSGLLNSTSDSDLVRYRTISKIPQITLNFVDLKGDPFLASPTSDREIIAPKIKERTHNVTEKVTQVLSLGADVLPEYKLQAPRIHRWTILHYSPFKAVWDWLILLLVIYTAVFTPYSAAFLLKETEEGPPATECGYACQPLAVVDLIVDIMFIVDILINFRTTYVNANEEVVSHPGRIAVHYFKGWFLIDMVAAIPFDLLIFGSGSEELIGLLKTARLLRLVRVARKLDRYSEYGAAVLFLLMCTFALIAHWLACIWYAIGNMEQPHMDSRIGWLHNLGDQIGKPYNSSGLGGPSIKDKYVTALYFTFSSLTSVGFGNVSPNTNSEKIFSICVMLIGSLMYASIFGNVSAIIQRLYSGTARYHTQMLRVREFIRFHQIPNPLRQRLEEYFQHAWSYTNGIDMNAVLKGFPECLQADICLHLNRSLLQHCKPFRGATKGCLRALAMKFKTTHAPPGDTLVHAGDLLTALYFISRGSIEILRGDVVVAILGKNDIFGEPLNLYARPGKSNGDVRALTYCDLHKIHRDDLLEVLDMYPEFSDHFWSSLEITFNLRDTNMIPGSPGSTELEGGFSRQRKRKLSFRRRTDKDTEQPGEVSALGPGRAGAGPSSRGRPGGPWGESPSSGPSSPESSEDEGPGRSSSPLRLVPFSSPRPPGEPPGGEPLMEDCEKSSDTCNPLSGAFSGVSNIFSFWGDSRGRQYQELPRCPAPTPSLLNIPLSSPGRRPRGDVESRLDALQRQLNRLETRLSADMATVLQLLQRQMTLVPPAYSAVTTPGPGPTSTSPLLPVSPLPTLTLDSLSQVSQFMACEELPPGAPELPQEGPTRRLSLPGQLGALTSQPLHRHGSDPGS
testDescription: primary screen, population patch clamp on CHO cells stably expressing hERG; higher = less effect of the substance
Description: Briefly, Chinese hamster ovary (CHO) cells stably expressing the hERG channel were dislodged from tissue culture flasks and dispensed into PPC plates. […] During the recording, background leak currents were estimated by a 100 ms step to -80 mV from an initial holding potential of -70 mV and subtracted from the subsequent current measurement. The campaign was conducted in two phases using slight differences in recording protocol. […]
About 14,000 (4.5%) of roughly 310,000 compounds showed an effect of 50% or more. The effect is printed as a negative number. Shown is part of a subset that was picked to be rich in strong results.
valueType: hERG current change (%, negative = inhibition) at 10uM (%)
Report the value in % with no unit label.

# hERG current change (%, negative = inhibition) at 10uM (compound: Cc1ccc(N2OC3C(=O)NC(=O)C3C2c2ccco2)cc1 (centres unmarked) ) is 7.89

# hERG current change (%, negative = inhibition) at 10uM (compound: CN(C)c1ccc(C2C3C(=O)NC(=O)C3ON2c2ccc(Cl)cc2)cc1 (centres unmarked) ) is -64

Recorded hERG current change (%, negative = inhibition) at 10uM (compound O=C(Cc1ccccc1)N1CCN(S(=O)(=O)c2ccc([N+](=O)[O-])cc2)CC1 ): -64

Recorded hERG current change (%, negative = inhibition) at 10uM (compound CCC1CCCCN1CCCNC(=O)CC1Oc2ccc(C)cc2NC1=O (centres unmarked) ): -7.95

The value of hERG current change (%, negative = inhibition) at 10uM measured for the compound Cn1cc(CN2CCN(CCc3ccccc3)C(CCO)C2)cn1 (centres unmarked) turned out to be 4.52

Entry CCCCN(CCCC)CCCNC(=O)CC1Oc2ccc(C)cc2NC1=O (centres unmarked) — recorded hERG current change (%, negative = inhibition) at 10uM = -49.5

// Cc1ccc(CC(=O)N2CCN(S(=O)(=O)c3ccccc3)CC2)cc1C : hERG current change (%, negative = inhibition) at 10uM value = -55.5

So, Cc1ccc2c(c1)NC(=O)C(CC(=O)NCCCN1CCCCC1)O2 (centres unmarked) ? Its hERG current change (%, negative = inhibition) at 10uM was -0.113

Data point: c1ccc(-c2ccc(-c3ccncn3)cc2)cc1 ; hERG current change (%, negative = inhibition) at 10uM = 23.6

hERG current change (%, negative = inhibition) at 10uM measured on Cc1ccc2c(c1)NC(=O)C(CC(=O)NCCCN1CCN(c3cc(C)ccc3C)CC1)O2 (centres unmarked) = -61.4

Lab note: Cc1ccc(S(=O)(=O)N2CCN(C(=O)Cc3ccccc3)CC2)cc1 gave hERG current change (%, negative = inhibition) at 10uM of -26.1

Looking up CC(C)CCN1CCN(Cc2ccc3nsnc3c2)CC1CCO (centres unmarked) , I found its hERG current change (%, negative = inhibition) at 10uM recorded as -42.6

Notebook: O=C(CN1CCN(c2ccc([N+](=O)[O-])cc2Cl)CC1)N1CCOCC1 , hERG current change (%, negative = inhibition) at 10uM read as -45.2

The recorded hERG current change (%, negative = inhibition) at 10uM for O=C(CN1CCOCC1)N1CCN(c2ccc([N+](=O)[O-])cc2)CC1 is -71.6
